These entries and their values trace back to patent US8691813B2.

biological target: human mGluR2 (Homo sapiens, UniProt Q14416); construct: expressed in transfected cells; host or cells: CHO cells (membrane preparation); assay: [35S]GTPγS binding assay (PAM assay) using membranes from CHO cells transfected with the human mGluR2 receptor; type: biochemical; conditions: in presence of glutamate at predetermined EC25 concentration; membranes containing human mGluR2; averages of duplicate values of 11-concentration response curves; read-out: GTPγS -hR2 PAM pEC50 (converted)
Sequence (Q14416 19-872): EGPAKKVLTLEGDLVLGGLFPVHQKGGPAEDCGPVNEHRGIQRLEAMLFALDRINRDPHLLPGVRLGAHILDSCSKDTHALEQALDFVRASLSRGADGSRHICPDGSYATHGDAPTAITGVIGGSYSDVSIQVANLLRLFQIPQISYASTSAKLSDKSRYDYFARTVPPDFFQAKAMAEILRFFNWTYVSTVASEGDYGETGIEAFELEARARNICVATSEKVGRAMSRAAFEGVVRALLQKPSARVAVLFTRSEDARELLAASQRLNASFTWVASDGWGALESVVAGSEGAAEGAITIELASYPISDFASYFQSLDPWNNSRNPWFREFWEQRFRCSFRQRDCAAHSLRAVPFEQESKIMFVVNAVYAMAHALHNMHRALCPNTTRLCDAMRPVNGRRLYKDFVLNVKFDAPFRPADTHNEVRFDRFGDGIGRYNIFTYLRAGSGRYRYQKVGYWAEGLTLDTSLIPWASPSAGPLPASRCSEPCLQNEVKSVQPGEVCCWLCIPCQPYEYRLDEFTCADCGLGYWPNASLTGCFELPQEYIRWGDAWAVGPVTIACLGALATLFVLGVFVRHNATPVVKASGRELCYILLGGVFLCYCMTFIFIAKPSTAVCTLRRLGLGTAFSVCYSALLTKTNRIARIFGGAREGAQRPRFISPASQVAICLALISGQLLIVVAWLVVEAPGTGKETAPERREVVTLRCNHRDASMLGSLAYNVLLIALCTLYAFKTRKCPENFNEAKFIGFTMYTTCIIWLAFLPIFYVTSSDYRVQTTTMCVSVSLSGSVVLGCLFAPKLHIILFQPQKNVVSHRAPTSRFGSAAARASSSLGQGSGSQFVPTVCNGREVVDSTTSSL

- compound: "FC(F)(F)Cc1cnc2c(Cl)c(-c3ccc4c(ccn4-c4ccccn4)c3)ccn12 [Compound 24]"
  EC50 [nM]: 468
- compound: "C[C@]1(O)CC[C@H](n2ccc3cc(-c4ccn5c(CC(F)(F)F)cnc5c4Cl)ccc32)CC1 [Compound 4]"
  EC50 [nM]: 129
- compound: "N#Cc1c(-c2ccc3c(ccn3-c3ccccc3)c2)ccn2c(CC(F)(F)F)cnc12 [Compound 28]"
  EC50 [nM]: 219
- compound: "Cc1cc(Cn2ccc3cc(-c4ccn5c(CC(F)(F)F)cnc5c4C#N)ccc32)ccn1 [Compound 30]"
  EC50 [nM]: 33.9
- compound: "CC(C)OCCn1ccc2cc(-c3ccn4c(CC(F)(F)F)cnc4c3C#N)ccc21 [Compound 14]"
  EC50 [nM]: 813
- compound: "N#Cc1c(-c2ccc3c(c2)OCCN3[C@H]2CC[C@H](O)CC2)ccn2c(CC(F)(F)F)cnc12 [Compound 19]"
  EC50 [nM]: 191
- compound: "N#Cc1c(-c2cc(Cl)c3c(ccn3C3CCOCC3)c2)ccn2c(CC(F)(F)F)cnc12 [Compound 1]"
  EC50 [nM]: 380
- compound: "CN1CCOc2cc(-c3ccn4c(CC(F)(F)F)cnc4c3C#N)ccc21 [Compound 15]"
  EC50 [nM]: 575
- compound: "CC(C)(O)Cn1ccc2cc(-c3ccn4c(CC(F)(F)F)cnc4c3C#N)ccc21 [Compound 9]"
  EC50 [nM]: 1070
- compound: "OC1CCC(N2CCOc3cc(-c4ccn5c(CC(F)(F)F)cnc5c4Cl)ccc32)CC1 (mixture of isomers) [Compound 5]"
  EC50 [nM]: 112

====

// reported melting point per item

- compound: "C[C@]1(O)CC[C@H](n2ccc3cc(-c4ccn5c(CC(F)(F)F)cnc5c4C#N)ccc32)CC1 [Compound 21]"
  melting point (°C): 138.6
- compound: "FC(F)(F)Cc1cnc2c(Cl)c(-c3cc(Cl)c4c(ccn4CC4CC4)c3)ccn12 [Compound 18]"
  melting point (°C): 151.3
- compound: "N#Cc1c(-c2ccc3c(ccn3CC3CC3)c2)ccn2c(CC(F)(F)F)cnc12 [Compound 13]"
  melting point (°C): 117.9
- compound: "O[C@H]1CC[C@H](n2ccc3cc(-c4ccn5c(CC(F)(F)F)cnc5c4Cl)ccc32)CC1 [Compound 3]"
  melting point (°C): 131.6
- compound: "N#Cc1c(-c2ccc3c(ccn3C3CCOCC3)c2)ccn2c(CC(F)(F)F)cnc12 [Compound 6]"
  melting point (°C): 232.9
- compound: "C[C@]1(O)CC[C@H](n2ccc3cc(-c4ccn5c(CC(F)(F)F)cnc5c4Cl)ccc32)CC1 [Compound 4]"
  melting point (°C): 262.2
- compound: "Cn1ccc2cc(-c3ccn4c(CC(F)(F)F)cnc4c3C#N)cc(Cl)c21 [Compound 10]"
  melting point (°C): 172
- compound: "N#Cc1c(-c2cc(Cl)c3c(ccn3CC3CC3)c2)ccn2c(CC(F)(F)F)cnc12 [Compound 11]"
  melting point (°C): 175.3
- compound: "N#Cc1c(-c2ccc3c(ccn3-c3ccc(F)cc3)c2)ccn2c(CC(F)(F)F)cnc12 [Compound 29]"
  melting point (°C): 197.3
- compound: "C[C@]1(O)CC[C@@H](n2ccc3cc(-c4ccn5c(CC(F)(F)F)cnc5c4C#N)ccc32)CC1 [Compound 22]"
  melting point (°C): 171.1
- compound: "FC(F)(F)Cc1cnc2c(Cl)c(-c3cc(Cl)c4[nH]ccc4c3)ccn12 [Compound 2]"
  melting point (°C): 182.8
